molecular target: Histone deacetylase; test: Inhibition of HDAC in human HeLa cells nuclear extract; format: subcellular, Nucleus
List of IC50 values.

Observe how each entry below is paired with its result.
SMILES_STRUCTURE | IC50
O=C(CCCCCCN1C(=O)Cc2cc(Cl)ccc21)NO | 7 nM
O=C(NO)c1ccc(CN2C(=O)Cc3cc(Br)ccc32)cc1 | 2739 nM
O=C(/C=C/c1ccc(CN2C(=O)Cc3cc(F)ccc32)cc1)NO | 5012 nM
O=C(/C=C/c1ccc(CN2C(=O)Cc3ccccc32)cc1)NO | 2316 nM
O=C(NO)c1ccc(CN2C(=O)Cc3ccccc32)cc1 | 477 nM

So for `O=C(CCCCCCN1C(=O)Cc2ccccc21)NO` , the logged IC50 turned out to be 15 nM

So for `COc1ccc2c(c1)CC(=O)N2CCCCCCC(=O)NO` , the logged IC50 turned out to be 25 nM

So for `O=C(NO)c1ccc(CN2C(=O)Cc3cc(F)ccc32)cc1` , the logged IC50 turned out to be 477 nM

So for `O=C(CCCCCCN1C(=O)Cc2cc(F)ccc21)NO` , the logged IC50 turned out to be 47 nM

So for `COc1ccc2c(c1)CC(=O)N2Cc1ccc(/C=C/C(=O)NO)cc1` , the logged IC50 turned out to be 1043 nM

So for `O=C(/C=C/c1ccc(CN2C(=O)Cc3cc(Cl)ccc32)cc1)NO` , the logged IC50 turned out to be 737 nM

So for `COc1ccc2c(c1)CC(=O)N2Cc1ccc(C(=O)NO)cc1` , the logged IC50 turned out to be 2735 nM
